Target: HLA-A*02:01 (Homo sapiens, UniProt P04439, D140Y/D185E/D98H/E176V/E277Q/G131W/G231S/I119V/I121R/I166T/I218V/L300P/L318F/N151K/N90K/P208A/P217A/Q86G/Q94H/R138H/R169H/T345S)
Assay: MHC binding assay (UV-ligand exchange, anti-β2m ELISA, peptide exchange yield)
Settings: binding to HLA-A*02:01
Measurement type: Peptide exchange (MHC class I binding score, peptide exchange yield)

{"Substance": "280 (VLPDPEVLEAV; listed as Homo sapiens) [compound 280]", "Test result": "“+++” (>50 = +++)"}
{"Substance": "501 (LLDPNVKSIFV; listed as Homo sapiens) [compound 501]", "Test result": "“+++” (>50 = +++)"}
{"Substance": "603 (FLIEPEHVNTV; listed as Homo sapiens) [compound 603]", "Test result": "“++” (>20% = ++)"}
{"Substance": "220 (LLQKFVPEI; listed as Homo sapiens) [compound 220]", "Test result": "“++” (>20% = ++)"}
{"Substance": "529 (LLADELITV; listed as Homo sapiens) [compound 529]", "Test result": "“+++” (>50 = +++)"}
{"Substance": "316 (ILLERLWYV; listed as Homo sapiens) [compound 316]", "Test result": "“+++” (>50 = +++)"}
{"Substance": "288 (NLINEINGV; listed as Homo sapiens) [compound 288]", "Test result": "“+++” (>50 = +++)"}
{"Substance": "480 (ALLEDSCHYL; listed as Homo sapiens) [compound 480]", "Test result": "“+++” (>50 = +++)"}
{"Substance": "11 (KIFEMLEGV; listed as Homo sapiens) [compound 11]", "Test result": "“+++” (>50 = +++)"}
{"Substance": "545 (LLADLLHNV; listed as Homo sapiens) [compound 545]", "Test result": "“+++” (>50 = +++)"}
{"Substance": "212 (ALWDQDNLSV; listed as Homo sapiens) [compound 212]", "Test result": "“++” (>20% = ++)"}
{"Substance": "310 (FLVDTPLARA; listed as Homo sapiens) [compound 310]", "Test result": "“++++” (>75% = ++++)"}
{"Substance": "356 (KLLGKLPEL; listed as Homo sapiens) [compound 356]", "Test result": "“+++” (>50 = +++)"}
{"Substance": "619 (ALQDRVPLA; listed as Homo sapiens) [compound 619]", "Test result": "“+++” (>50 = +++)"}
{"Substance": "465 (QLCDLNAEL; listed as Homo sapiens) [compound 465]", "Test result": "“+++” (>50 = +++)"}
{"Substance": "358 (ALDEYTSEL; listed as Homo sapiens) [compound 358]", "Test result": "“++++” (>75% = ++++)"}
{"Substance": "114 (SLVGEPILQNV; listed as Homo sapiens) [compound 114]", "Test result": "“++” (>20% = ++)"}
{"Substance": "80 (FLYDNLVESL; listed as Homo sapiens) [compound 80]", "Test result": "“++” (>20% = ++)"}
{"Substance": "497 (GLLEKLTAI; listed as Homo sapiens) [compound 497]", "Test result": "“+++” (>50 = +++)"}
{"Substance": "512 (SLSEIVPCL; listed as Homo sapiens) [compound 512]", "Test result": "“+++” (>50 = +++)"}
{"Substance": "613 (RLLPPGAVVAV; listed as Homo sapiens) [compound 613]", "Test result": "“+++” (>50 = +++)"}
{"Substance": "64 (YAAPGGLIGV; listed as Homo sapiens) [compound 64]", "Test result": "“++” (>20% = ++)"}
{"Substance": "98 (LIIDQADIYL; listed as Homo sapiens) [compound 98]", "Test result": "“+++” (>50 = +++)"}
{"Substance": "388 (SLTIDGIRYV; listed as Homo sapiens) [compound 388]", "Test result": "“+++” (>50 = +++)"}
{"Substance": "214 (FLLDLDPLLL; listed as Homo sapiens) [compound 214]", "Test result": "“+++” (>50 = +++)"}
{"Substance": "106 (LLYDAVHIVSV; listed as Homo sapiens) [compound 106]", "Test result": "“+++” (>50 = +++)"}
{"Substance": "299 (YLLETSGNL; listed as Homo sapiens) [compound 299]", "Test result": "“+++” (>50 = +++)"}
{"Substance": "412 (YLDDLNEGVYI; listed as Homo sapiens) [compound 412]", "Test result": "“++” (>20% = ++)"}
{"Substance": "236 (GLLEAKVSL; listed as Homo sapiens) [compound 236]", "Test result": "“+++” (>50 = +++)"}
{"Substance": "332 (YLISELEAA; listed as Homo sapiens) [compound 332]", "Test result": "“+++” (>50 = +++)"}
{"Substance": "506 (KLLGKVETA; listed as Homo sapiens) [compound 506]", "Test result": "“+++” (>50 = +++)"}
{"Substance": "373 (SLLEDKGLAEV; listed as Homo sapiens) [compound 373]", "Test result": "“++” (>20% = ++)"}
{"Substance": "7 (SLVGLLLYL; listed as Homo sapiens) [compound 7]", "Test result": "“++++” (>75% = ++++)"}
